Quick reference: peptide microarray binding signal of the listed items.
# TARGET_ENTITY: anti-H3K9me3 antibody ab8898
# PROCEDURE_SUMMARY: peptide microarray binding signal (635 nm), min-max normalized on array (fraction of array maximum); higher = stronger binding
# CONDITION: peptide region: Unmod H1 variant; binder concentration: 1:2,000 dilution
READOUT: peptide microarray binding signal

>>> measured_number("KAAKPKKAAAKKK [Unmod H1 variant K A A K P K K A A A K K K]")
0.000619
>>> measured_number("GVSLAALKKALAA [Unmod H1 variant G V S L A A L K K A L A A]")
0.00131
>>> measured_number("APAPAEKTPVKKK [Unmod H1 variant A P A P A E K T P V K K K]")
0.000906
>>> measured_number("KAASGEAKPKAKK [Unmod H1 variant K A A S G E A K P K A K K]")
0.000483
>>> measured_number("PKKAKAAKPKKAP [Unmod H1 variant P K K A K A A K P K K A P]")
0.000589
>>> measured_number("AVAASKERSGVSL [Unmod H1 variant A V A A S K E R S G V S L]")
0.00335
>>> measured_number("KTVKPKKVAKSPA [Unmod H1 variant K T V K P K K V A K S P A]")
0.000121
>>> measured_number("KSPAKAKAVKPKA [Unmod H1 variant K S P A K A K A V K P K A]")
0.000196
>>> measured_number("KAKPVKASKPKKA [Unmod H1 variant K A K P V K A S K P K K A]")
0.000196
>>> measured_number("ALAAAGYDVEKNN [Unmod H1 variant A L A A A G Y D V E K N N]")
0.00281
>>> measured_number("VKKKARKSAGAAK [Unmod H1 variant V K K K A R K S A G A A K]")
0.000272
>>> measured_number("LKKALAAAGYDVE [Unmod H1 variant L K K A L A A A G Y D V E]")
0.000861
>>> measured_number("KAKSSAKRAGKKK [Unmod H1 variant K A K S S A K R A G K K K]")
0.000227
>>> measured_number("EKNNSRIKLGLKS [Unmod H1 variant E K N N S R I K L G L K S]")
0.000317
>>> measured_number("AKKKLAATPKKAK [Unmod H1 variant A K K K L A A T P K K A K]")
0.000272
>>> measured_number("RLVTTGVLKQTKG [Unmod H1 variant R L V T T G V L K Q T K G]")
0.00151
